Experiment: Binding affinity to CLPB (unknown origin) expressed in Escherichia coli MC4100 assessed as change in melting temperature at 100 to 200 uM after 30 mins by DSF analysis in presence of ADP
measurement kind: ΔTm (°C)
Numbers only; they are read as °C.

Below are worked cases with known answers.
CC(C)[C@H](C(=O)O)N1C(=O)/C(=C2/C(=O)Nc3ccc(Br)cc32)SC1=S
19.9
C(=C\C=C\Nc1ccccc1)/C=C/Nc1ccccc1
12.3
CCn1c(=O)c(C(=O)Nc2cccc(O)c2)c(O)c2ccccc21
1.5
O=Cc1cc(Cc2ccccc2Cl)cc([N+](=O)[O-])c1O
6.7
Cc1c(Cl)c([N+](=O)[O-])nn1CC(=O)Nc1cc(Oc2ccc(Cl)cc2Cl)cc([N+](=O)[O-])c1
0.7
COCCCN1C(=O)C(=C2C(=O)Nc3ccc(Br)cc32)SC1=S
9.4

[in] For the molecule shown here, C=CCN1C(=O)C(=C2C(=O)Nc3ccccc32)SC1=S , give the reported ΔTm.
[out] 7.6

[in] Suppose we examine the molecule O=C(Nc1cccc([N+](=O)[O-])c1)c1sc2cccc(Cl)c2c1Cl ; what ΔTm value has been reported?
[out] 5.2

[in] Any idea what its ΔTm is? The molecule is O=C(Nc1ccccc1)OCCSC(=O)Nc1ccc(Cl)c(Cl)c1
[out] 0.8

[in] Entry COc1cc(/C=C2/C(=O)NN(c3ccc(Cl)cc3)C2=O)ccc1OCc1ccc(F)cc1 has what ΔTm?
[out] 0.7

[in] Which ΔTm is reported for this molecule? O=C1Nc2ccc(Br)cc2/C1=C1/SC(=O)N(c2ccccc2)C1=O
[out] -0.7

###

Assay: Activation of CLPB (unknown origin) expressed in Escherichia coli MC4100 at 1 to 100 uM by spectrophotometric analysis
Calls of active or inactive are those of the source. The calls are words filed in the database; no cut-off is given here.
measurement kind: Activity

COc1cc(/C=C2/C(=O)NN(c3ccc(Cl)cc3)C2=O)ccc1OCc1ccc(F)cc1
Active
C(=C\C=C\Nc1ccccc1)/C=C/Nc1ccccc1
Active
O=C1Nc2ccc([N+](=O)[O-])cc2/C1=C1\SC(=O)N(c2ccc(Cl)cc2)C1=O
Active
O=C1Nc2ccc(Br)cc2/C1=C1/SC(=O)N(c2ccccc2)C1=O
Active

###

Assay: Binding affinity to CLPB (unknown origin) expressed in Escherichia coli MC4100 assessed as change in melting temperature at 100 to 200 uM after 30 mins by DSF analysis
Returns t if the recorded ΔTm is greater than or equal to 8 °C, and f otherwise.

O=C1Nc2ccc(Br)cc2/C1=C1/SC(=O)N(c2ccccc2)C1=O
t
CCn1c(=O)c(C(=O)Nc2cccc(O)c2)c(O)c2ccccc21
f
COCCCN1C(=O)C(=C2C(=O)Nc3ccc(Br)cc32)SC1=S
t
C(=C\C=C\Nc1ccccc1)/C=C/Nc1ccccc1
t
O=C(Nc1ccccc1)OCCSC(=O)Nc1ccc(Cl)c(Cl)c1
f
O=C1Nc2ccc([N+](=O)[O-])cc2/C1=C1\SC(=O)N(c2ccc(Cl)cc2)C1=O
t
C=CCN1C(=O)C(=C2C(=O)Nc3ccccc32)SC1=S
t
COc1cc(/C=C2/C(=O)NN(c3ccc(Cl)cc3)C2=O)ccc1OCc1ccc(F)cc1
f

[in] Can CC(C)[C@H](C(=O)O)N1C(=O)/C(=C2/C(=O)Nc3ccc(Br)cc32)SC1=S be said to have ΔTm at or above 8 °C?
[out] t

[in] Determine whether this compound has ΔTm no lower than 8 °C: Cc1c(Cl)c([N+](=O)[O-])nn1CC(=O)Nc1cc(Oc2ccc(Cl)cc2Cl)cc([N+](=O)[O-])c1
[out] t

[in] ΔTm >= 8 °C for O=C(Nc1cccc([N+](=O)[O-])c1)c1sc2cccc(Cl)c2c1Cl ?
[out] f

Where do the numbers come from? From ChEMBL document CHEMBL2424520.
